FYI, the data here is from patent US20260042834A1.

- Experimental Target: T1, CRH (CT-Biotin) (human and mouse (same sequence), biotin on an added C-terminal K (CRH-K-Biotin))
- T1 construct: also called Peptide 4 (CRH-Biotin)
- T1 peptide: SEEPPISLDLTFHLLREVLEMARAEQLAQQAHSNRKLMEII
- Protocol: ELISA, biotinylated CRH on streptavidin plate
- Method: Streptavidin (Thermo, Cat: 21125) was diluted in PBS to a concentration of 2 μg/ml. 100 μl of diluted streptavidin was added per well to ELISA microplates, and the plates were incubated overnight at 4° C. […] 100 μL of ELISA stopping solution (Solarbio, Cat #: C1058) was added to terminate the reaction, and the optical density at 450 nm (OD450 nm) was determined by an ELISA plate reader (Molecular Devices, Spectra max 384 plus).
The reader will find reported EC50 values listed item by item below.
The answer is to be given in nM; state only the numeric part.

A selection of reference data follows.
[
  {
    "Binder": "PR302045 (antibody, human IgG1, kappa, V domains shown, humanized variant of PR301777) VH: EVQLVESGGGLVQPGGSLKLSCAASGFTFSNYWMNWVRQASGKGLEWVGEIRLKSNNYATHYAESVKGRFTISRDDSKNTAYLQMNSLKTEDTAVYYCTRGTLVYWGQGTLVTVSS VL: EIVLTQSPATLSLSPGERATLSCRASQSVSTSTYNYMHWFQQKPGQAPRLLIKFASNLESGIPARFSGSGSGTDFTLTISSLEPEDTAVYYCQHSWEIPYTFGQGTKLEIKR",
    "Units Of Measure": "nM",
    "Observed Value": 0.046
  },
  {
    "Binder": "PR302031 (antibody, human IgG1, kappa, V domains shown, humanized variant of PR301777) VH: EVQLVESGGGLVQPGGSLRLSCAASGFTFSNYWMNWVRQAPGKGLEWVGEIRLKSNNYATHYAESVKGRFTISRDDSKNSLYLQMNSLKTEDTAVYYCTVGTLVYWGQGTLVTVSS VL: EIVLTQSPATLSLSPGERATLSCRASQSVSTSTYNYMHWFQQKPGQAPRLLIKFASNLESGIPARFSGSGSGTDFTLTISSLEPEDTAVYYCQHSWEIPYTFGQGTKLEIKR",
    "Units Of Measure": "nM",
    "Observed Value": 0.028
  },
  {
    "Binder": "PR302048 (antibody, human IgG1, kappa, V domains shown, humanized variant of PR301777) VH: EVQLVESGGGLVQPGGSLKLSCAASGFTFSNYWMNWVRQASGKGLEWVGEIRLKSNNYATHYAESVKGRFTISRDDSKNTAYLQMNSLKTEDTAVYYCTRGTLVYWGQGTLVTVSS VL: DIQLTQSPSSLSASVGDRVTITCRASQSVSTSTYNYMHWFQQKPGKAPKLLIKFASNLESGVPSRFSGSGSGTDFTLTISSLQPEDTATYYCQHSWEIPYTFGQGTKLEIKR",
    "Units Of Measure": "nM",
    "Observed Value": 0.024
  },
  {
    "Binder": "PR302069 (antibody, human IgG1, kappa, V domains shown, humanized variant of PR301777) VH: EMQLVESGGGLVKPGGSLRLSCAASGFTFSNYWMNWVRQAPGKGLEWVAEIRLKSNNYATHYAESVKGRFTISRDDSKSTVYLQMNSLKTEDTAVYYCTVGTLVYWGQGTLVTVSS VL: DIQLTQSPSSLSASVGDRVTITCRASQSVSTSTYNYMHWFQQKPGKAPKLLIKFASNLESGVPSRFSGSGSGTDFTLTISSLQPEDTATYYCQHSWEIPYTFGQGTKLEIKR",
    "Units Of Measure": "nM",
    "Observed Value": 0.016
  }
]

Kindly review the next binder as well.
# query: EC50 of entry PR302034 (antibody, human IgG1, kappa, V domains shown, humanized variant of PR301777) VH: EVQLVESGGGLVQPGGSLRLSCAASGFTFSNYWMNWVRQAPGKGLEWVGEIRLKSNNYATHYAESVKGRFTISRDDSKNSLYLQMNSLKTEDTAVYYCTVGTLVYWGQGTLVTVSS VL: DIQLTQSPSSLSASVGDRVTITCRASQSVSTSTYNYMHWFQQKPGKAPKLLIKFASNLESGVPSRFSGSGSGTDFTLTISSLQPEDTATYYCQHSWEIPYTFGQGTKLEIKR
0.022
